Origin of the recorded values: patent US12611406B2

# assay_text: 28-day once weekly oral repeated-dose DRF study in cynomolgus monkeys (mesylate salt)
# Assay type: in vivo
# protocol_conditions: female, cynomolgus monkey, blood, po, 45 mg/kg, F, Day 22
measurement_label: Cmax (ng/mL)
Report the figure in ng/mL without appending any unit label.

Q) Using the record for CC(C)C[C@@H]1NCCN([C@@H](CC(C)C)C(=O)N2CCC3(C[C@@H]2C)OCC(CN2CCCC2)CO3)C1=O (stereo partly shown) , report its Cmax.
A) 1650

----------
# assay_text: 5-day daily oral repeated-dose pilot study in Beagle dogs (mesylate salt)
# Format: in vivo
# protocol_conditions: both sexes, Beagle, dog, plasma, po, 2 mg/kg, Day 5
# Method: The objective of the study was to determine the TK profile of Compound 1, following its daily administration through oral gavage for 5 consecutive days to Beagle dogs. Compound 1 (mesylate salt) was administered daily to groups of dogs (n=2/sex/group) by oral gavage (PO) for 5 consecutive days at doses of 1.5 and 2 mg/kg/day. The vehicle was 0.5% (w/v) methylcellulose in sterile water. […]
measurement_label: Tmax

Q) For CC(C)C[C@@H]1NCCN([C@@H](CC(C)C)C(=O)N2CCC3(C[C@@H]2C)OCC(CN2CCCC2)CO3)C1=O (stereo partly shown) , what is its reported Tmax?
A) ~2.1 h

----------
# assay_text: 14-day daily oral repeated-dose exploratory study in CD-1 mice (mesylate salt)
# Type: in vivo
# protocol_conditions: female, CD-1, mouse, in vivo, po, 10 mg/kg, F, Day 1
measurement_label: Cmax (µg/mL)
Numbers only; they are read as µg/mL.

Q) Could you share which Cmax value was measured for CC(C)C[C@@H]1NCCN([C@@H](CC(C)C)C(=O)N2CCC3(C[C@@H]2C)OCC(CN2CCCC2)CO3)C1=O (stereo partly shown) [Compound 1] ?
A) 0.0605

----------
# assay_text: Single dose oral and intravenous PK in CD-1 mice (mesylate salt), blood
# Format: in vivo
# Set-up: unit not given here
# protocol_conditions: male, CD-1, mouse, whole blood; intravenous 5 mg/kg
measurement_label: AUC(0-t)
Output spec: single numeric token, no unit.

Q) Can you look up the measured AUC(0-t) of CC(C)C[C@@H]1NCCN([C@@H](CC(C)C)C(=O)N2CCC3(C[C@@H]2C)OCC(CN2CCCC2)CO3)C1=O (stereo partly shown) for me?
A) 1.03

----------
# assay_text: 28-day once weekly oral repeated-dose DRF study in CD-1 mice (mesylate salt), plasma
# Assay type: in vivo
# protocol_conditions: male, CD-1, mouse, plasma, po, 600 mg/kg, 600 mg/kg/week, 2nd dose (Week 2); read-out: AUC0-8h
measurement_label: AUC(0-t) (ng·h/mL)
Number in ng·h/mL, nothing else.

Q) Requested read-out: AUC(0-t). Entry: CC(C)C[C@@H]1NCCN([C@@H](CC(C)C)C(=O)N2CCC3(C[C@@H]2C)OCC(CN2CCCC2)CO3)C1=O (stereo partly shown)
A) 47800

----------
# assay_text: 28-day once weekly oral repeated-dose DRF TK study in Beagle dogs (mesylate salt), plasma
# Assay type: in vivo
# protocol_conditions: both sexes, Beagle, dog, plasma, po, 10 mg/kg, 10 mg/kg weekly, Day 8
measurement_label: AUC (ng·h/mL)
The answer is to be given in ng·h/mL; state only the numeric part.

Q) Report AUC for CC(C)C[C@@H]1NCCN([C@@H](CC(C)C)C(=O)N2CCC3(C[C@@H]2C)OCC(CN2CCCC2)CO3)C1=O (stereo partly shown) [Compound 1] please.
A) 1590

----------
# assay_text: 28-day once weekly oral repeated-dose DRF study in cynomolgus monkeys (mesylate salt)
# Format: in vivo
# protocol_conditions: male, cynomolgus monkey, whole blood, po, 30 mg/kg, M, Day 1
measurement_label: Tmax (min)
Give the quantity in min, number only.

Q) // query Tmax value for entry CC(C)C[C@@H]1NCCN([C@@H](CC(C)C)C(=O)N2CCC3(C[C@@H]2C)OCC(CN2CCCC2)CO3)C1=O (stereo partly shown)
A) 37.8

----------
# assay_text: 28-day once weekly oral repeated-dose DRF study in CD-1 mice (mesylate salt), plasma
# Type: in vivo
# protocol_conditions: male, CD-1, mouse, plasma, po, 600 mg/kg, 600 mg/kg/week, 2nd dose
# Protocol: This study explored the PK of Compound 1 after once weekly oral administration of 300 and 600 mg/kg/week for 4 consecutive weeks to male CD-1 mice. Compound 1 (mesylate salt) was administered in 4 weekly doses by oral gavage to groups of male CD-1 mice (n=3/group) at dose levels of 300 and 600 mg/kg bodyweight per week. A suspension of 0.5% methylcellulose (w/v) in sterile water served as vehicle. […] Total plasma concentrations of Compound 1 were analyzed using a qualified LC-MS/MS method.
measurement_label: Tmax (h)
Give the value in h but do not write h after it.

Q) Item CC(C)C[C@@H]1NCCN([C@@H](CC(C)C)C(=O)N2CCC3(C[C@@H]2C)OCC(CN2CCCC2)CO3)C1=O (stereo partly shown) has what recorded Tmax?
A) 5.7

----------
# assay_text: 28-day once weekly oral repeated-dose DRF study in cynomolgus monkeys (mesylate salt)
# Assay type: in vivo
# protocol_conditions: female, cynomolgus monkey, blood, po, 60 mg/kg, F, Day 1
# Procedure: The objective of the study was to determine the TK profile of Compound 1 following 4 weekly oral administrations to cynomolgus monkeys and to assess reversibility of any changes following a 13-day recovery period. Male and female cynomolgus monkeys (n=1/sex/group) were orally administered Compound 1 (mesylate salt) at dose levels of 30, 45, 60, or 90 mg/kg/administration for 4 consecutive doses on study days 1, 8, 15, and 22. The vehicle was 0.5% (w/v) methyl cellulose 400 in sterile water. […]
measurement_label: half-life (h)
The figure you give is taken to be in h; do not add the unit.

Q) // returns reported half-life for input CC(C)C[C@@H]1NCCN([C@@H](CC(C)C)C(=O)N2CCC3(C[C@@H]2C)OCC(CN2CCCC2)CO3)C1=O (stereo partly shown)
A) 3.8

----------
# assay_text: 14-day daily oral repeated-dose exploratory study in CD-1 mice (mesylate salt)
# Type: in vivo
# protocol_conditions: male, CD-1, mouse, in vivo, po, 1 mg/kg, M, Day 14
measurement_label: Cmax (ng/mL)
Give the value in ng/mL but do not write ng/mL after it.

Q) What Cmax value was documented for this compound, CC(C)C[C@@H]1NCCN([C@@H](CC(C)C)C(=O)N2CCC3(C[C@@H]2C)OCC(CN2CCCC2)CO3)C1=O (stereo partly shown) ?
A) 16.3

----------
# assay_text: 14-day daily oral repeated-dose DRF study in cynomolgus monkeys (mesylate salt)
# Type: in vivo
# protocol_conditions: cynomolgus monkey, plasma, po, 4 mg/kg, 4 mg/kg (Gr. 1), Day 11
measurement_label: Cmax
Just so you know, I need the unit written after the number.

Q) Bench note: what Cmax did CC(C)C[C@@H]1NCCN([C@@H](CC(C)C)C(=O)N2CCC3(C[C@@H]2C)OCC(CN2CCCC2)CO3)C1=O (stereo partly shown) show?
A) 3.06 ng/mL

----------
# assay_text: Plasma protein binding, equilibrium dialysis
# Assay type: in vitro ADME, cynomolgus monkey
# protocol_conditions: monkey plasma, 37° C, buffer pH 7.4; read-out: Fraction unbound (Fu), Mean
# Procedure: Protein binding of Compound 1 to the plasma from several species, i.e., human, cynomolgus monkey, dog, rat, and mouse was investigated in vitro by incubation in plasma and determination of unbound fraction of Compound 1 using equilibrium dialysis. […] Compound concentration on both sides of the membrane is measured by liquid chromatography—tandem mass spectroscopy (LC-MS/MS).
measurement_label: fraction unbound
Just the number, please, no unit after it.

Q) I have this compound here, CC(C)C[C@@H]1NCCN([C@@H](CC(C)C)C(=O)N2CCC3(C[C@@H]2C)OCC(CN2CCCC2)CO3)C1=O (stereo partly shown) , and I need its recorded fraction unbound.
A) 0.602

----------
# assay_text: Single dose oral gavage or intravenous PK in female cynomolgus monkeys, plasma
# Type: in vivo
# protocol_conditions: female, cynomolgus monkey, plasma; IV 0.6 mg/kg
measurement_label: Cmax

Q) Could you tell me which Cmax is on file for CC(C)C[C@@H]1NCCN([C@@H](CC(C)C)C(=O)N2CCC3(C[C@@H]2C)OCC(CN2CCCC2)CO3)C1=O (stereo partly shown) ?
A) 0.162 µg/mL

----------
# assay_text: 5-day daily oral repeated-dose pilot study in cynomolgus monkeys (mesylate salt)
# Assay type: in vivo
# protocol_conditions: both sexes, cynomolgus monkey, serum, po, 16 mg/kg/day, Day 1; read-out: Peak serum levels (Cmax)
measurement_label: Cmax

Q) For CC(C)C[C@@H]1NCCN([C@@H](CC(C)C)C(=O)N2CCC3(C[C@@H]2C)OCC(CN2CCCC2)CO3)C1=O (stereo partly shown) , what is its reported Cmax?
A) 136 ng/mL

----------
# assay_text: 28-day once weekly oral repeated-dose DRF study in cynomolgus monkeys (mesylate salt)
# Assay type: in vivo
# protocol_conditions: female, cynomolgus monkey, blood, po, 60 mg/kg, F, Day 22
measurement_label: half-life (h)
Give just the number in h; leave the unit off.

Q) Tell me the measured half-life of CC(C)C[C@@H]1NCCN([C@@H](CC(C)C)C(=O)N2CCC3(C[C@@H]2C)OCC(CN2CCCC2)CO3)C1=O (stereo partly shown) [Compound 1] , please.
A) 4.4
